Measured quantity: melting point

In the examples that follow, each entry is paired with its recorded melting point.
c1ccc(C(CCOc2ccc(CCC3=NCCCO3)cc2)(c2ccccc2)c2ccccc2)cc1; 60 to 63 °C
CC(C)[C@H](NC(=O)c1ccc(Cn2nnc(-c3ccc(OC(=O)C(C)(C)C)cc3)n2)cc1)C(=O)OCc1ccccc1; 157 to 159 °C
CC(=O)N[C@@H](CSC(=O)C(C)(C)C)C(=O)NCCSC(=O)C(C)(C)C; 109 to 111 °C
CCN(CC)CCNc1cc(Sc2ccc(Cl)cc2)nc(-c2ccccc2)n1; 83.5 to 86 °C

Here's the next entry for you.
Determine its reported melting point: `Clc1ccc2c(c1)[nH]c1cc(Cl)ccc12`
188 to 189 °C

---

Measured quantity: melting point

In the examples that follow, each entry is paired with its recorded melting point.
CN1CC(c2cccc(Br)c2)=C(c2ccc(S(C)(=O)=O)cc2)C1=O; 138 to 139 °C
O=C(NC1CC1)c1cccc(-c2ccc3c(c2)N(c2ccc(Cl)cc2Cl)CC3)c1; 215 to 218 °C
CC1(C)CCCC2(C)CC12/C=C/C(=O)N1CCN(C(N)=O)CC1 (stereo not given); 166 to 168 °C
CC(C)c1cc(S(=O)(=O)C(C)C)c(C(C)C)cc1C#N; 130 to 134 °C
CN1CCc2cc(Cl)c(O)cc2[C@H](c2ccccc2)C1; 188 to 189 °C

Here's the next entry for you.
Determine its reported melting point: `CC(C)c1ccc(-n2nc(C(F)(F)F)cc2-c2ccc(S(C)(=O)=O)cc2)cc1Cl`
84 to 86 °C

---

Measured quantity: melting point

CN1CCC(OC(c2cccc(O)c2)c2nc3ccccc3s2)CC1 (stereo not given); 201 °C

Determine its reported melting point: `Cc1ccc2c(c1)S/C(=C(/N)c1ccccc1)C2=O`
166 to 167 °C

Determine its reported melting point: `CCc1ccc(N2CCN(Cc3c[nH]c4ncccc34)CC2)cc1`
216 to 217 °C

Determine its reported melting point: `CN1CC2(OCCO2)c2ccc3ccccc3c2S1(=O)=O`
169 to 171 °C

Determine its reported melting point: O=C(c1ccccc1F)c1cc2c(c(Cl)c1Cl)OC(C(=O)O)C2 (stereo not given)
180 to 181 °C

Determine its reported melting point: `COc1cc(COc2cc(/C=C/C(=O)O)n(-c3ccccc3)n2)ccc1OCc1nc(-c2ccccc2)oc1C`
194 to 195 °C

Determine its reported melting point: `CCC(CC)Oc1cc([N+](=O)[O-])ccc1N`
62 to 63 °C

Determine its reported melting point: `Cc1ncc(CCCOc2c(C)cc(-c3nnn(C)n3)cc2C)s1`
86 to 88 °C

Determine its reported melting point: Cc1cc(C(=O)N2CCOCC2)ncc1C(c1cc(F)ccc1F)S(=O)(=O)c1ccc(F)cc1 (stereo not given)
165 to 167 °C

Determine its reported melting point: C#Cc1cn(C2CC(O)C(CO)O2)c(=O)nc1N (stereo not given)
162 to 165 °C

---

Property: melting point; scope: individual molecules

CCCCCCSc1ccc(SCCCCCC)c(C(=O)O)n1; 40 to 42 °C
Cn1c(NC2CCNC(Cc3ccccc3)C2)nc2ccccc21 (configuration not stated); 86.3 °C
O=C1CC=C2CCC(=O)N12; 155 to 156 °C
COc1ccc(-c2cc(=O)c3c(O)c(I)c(OC)cc3o2)cc1; 205 to 207 °C
COc1cccc(/C(=C\C=C\C(=O)NCCCCc2cccnc2)c2cccc(F)c2)c1; 96 to 98 °C
CCCCC1OC(=O)c2cc(NC(=O)CCC(=O)O)ccc21 (configuration not stated); 163 to 165 °C
O=[N+]([O-])c1ccc(C(F)(F)F)c(Nc2nc3ccccc3o2)c1; 150 to 152 °C
CC(C)(C)OC(=O)Cn1c(C(=O)O)cc2cc(NC(=O)OC(C)(C)C)ccc21; > 300 °C
CCCCCCCCCCCCCCCCCCN(CCCCCCCCCCCCCCCCCC)Cc1ccc(CN(CCO)CCO)cc1; 49 to 50 °C
Cc1csc2[nH]cc(C#N)c(=O)c12; 285 °C

Determine its reported melting point: `Cc1nc2c(O)c(C(=O)[C@@H]3OC(C)(C)O[C@H]3c3ccccc3)ccc2n1C`
233 °C

Determine its reported melting point: COC(=O)C1CCC2C3CCC4CC(=O)CCC4(C)C3C(NC3CCCC3)CC12C (configuration not stated)
156 to 158 °C
